# targetOrSystem: hGLP-1R (Homo sapiens, UniProt P43220)
# Sequence (P43220 24-463): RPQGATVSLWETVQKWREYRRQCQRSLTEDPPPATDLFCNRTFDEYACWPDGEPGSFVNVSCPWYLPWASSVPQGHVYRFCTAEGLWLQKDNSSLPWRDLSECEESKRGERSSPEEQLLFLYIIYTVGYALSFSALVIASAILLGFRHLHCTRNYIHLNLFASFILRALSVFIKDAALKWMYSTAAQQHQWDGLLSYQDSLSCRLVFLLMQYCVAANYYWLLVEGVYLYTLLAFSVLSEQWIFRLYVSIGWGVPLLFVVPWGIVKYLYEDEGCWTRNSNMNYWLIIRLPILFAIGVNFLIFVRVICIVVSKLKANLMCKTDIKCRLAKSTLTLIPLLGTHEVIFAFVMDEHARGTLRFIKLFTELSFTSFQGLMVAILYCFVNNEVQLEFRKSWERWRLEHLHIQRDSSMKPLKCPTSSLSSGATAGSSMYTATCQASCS
# experiment: cell-based or functional assay
Starred links: 1 amine or outer side, 2 acyl side, 3 side chain; linkers in the order of their positions; H or OH if unused. Non-standard residues stand in square brackets, D forms with d. Groups on a side chain read outwards from the residue. No end group written: not given here. *: point of attachment. C20 diacid = O=C(O)CCCCCCCCCCCCCCCCCCC(=O)*; Phe(4-CN) = N#Cc1ccc(C[C@H](N)C(=O)O)cc1; αMePhe(2-F) = C[C@](N)(Cc1ccccc1F)C(=O)O; γGlu = O=C(O)[C@H](CCC(=O)[*:2])N[*:1]; AEEA = NCCOCCOCC(=O)O; Aib = CC(C)(N)C(=O)O
attributeMeasured: cAMP Rel EC50, nM (1% HSA) (nM)

1) YXQGTXTSDYSILLDXKAQXAFIEYLLEGGPSSGAPPPS (synthetic construct; SITE 2: note = 2-Aminoisobutyric Acid; SITE 6: note = alpha-methyl-2-fluoro-L-phenylalanine; SITE 16: note = L-ornithine; SITE 17: note = Lysine is chemically modified through conjugation of the epsilon-amino group of the Lysine side chain with (gamma-Glu)2-CO-(CH2)16-CO2H; SITE) [Example 428]: 38.2
2) YXQGTXTSDXXIXLDXKAQXXFIEXLAEGGPSSGEPPPE (synthetic construct; SITE 2: note = 2-Aminoisobutyric Acid; SITE 6: note = alpha-methyl-2-fluoro-L-phenylalanine; SITE 10: note = 3-(4-Pyridyl)-L-alanine; SITE 11: note = alpha-methyl-L-serine; SITE 13: note = alpha-methyl-leucine; SITE 16: note = L-ornithine; SITE 17: note = Lysine is chemically mo) [Example 437]: 26.9
3) YXQGTFTSDFSRXLDKKAQXAFIEYLIEGGESSGAPPPSGS (synthetic construct; SITE 2: note = 2-Aminoisobutyric Acid; SITE 13: note = alpha-methyl-leucine; SITE 17: note = Lysine is chemically modified through conjugation of the epsilon-amino group of the Lysine side chain with (2-[2-(2-Amino-ethoxy)-ethoxy]-acetyl)-(gamma-Glu)-CO-(CH2) 16-CO2H; SITE 20: n) [Example 794]: 233
4) YXQGTXTSDXSILLDKQAQKAFIEYLLEGGPSSGEPPPSEG (not fully specified; synthetic construct; SITE 2: note = 2-Aminoisobutyric Acid; SITE 6: note = alpha-methyl-2-fluoro-L-phenylalanine; SITE 10: note = 3-(4-Pyridyl)-L-alanine; SITE 20: note = Lysine is chemically modified through conjugation of the epsilon-amino group of the Lysine side chain with (2-[2-(2-Amino-ethoxy))) [Example 347]: 254
5) Y[Aib]QGT[αMePhe(2-F)]TSD[Phe(4-CN)]SKLLDKIAQK([AEEA-γGlu-C20 diacid])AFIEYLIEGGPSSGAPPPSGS-NH2 [Example 363]: 217
6) YXQGTFTSDXSXXLDXKAQXXFIEXLIEGGPSSGAPPPSGSEE (Aib, 4Pal, Orn, Me4Pal, alpha-methyl-Tyr, lipidated Lys, amide; synthetic construct; SITE 2: note = 2-Aminoisobutyric Acid; SITE 10: note = 3-(4-Pyridyl)-L-alanine; SITE 12: note = L-ornithine; SITE 13: note = alpha-methyl-leucine; SITE 16: note = L-ornithine; SITE 17: note = Lysine is chemically modified through conjugation of the epsilon-amino group of the Lys) [Example 974]: 283
7) YXQGTFTSDYSKXLDKKAQXAFIEYLLEGGESSGAPPPSGS (synthetic construct; SITE 2: note = 2-Aminoisobutyric Acid; SITE 13: note = alpha-methyl-leucine; SITE 17: note = Lysine is chemically modified through conjugation of the epsilon-amino group of the Lysine side chain with (2-[2-(2-Amino-ethoxy)-ethoxy]-acetyl)-(gamma-Glu)-CO-(CH2) 16-CO2H; SITE 20: n) [Example 358]: 492
8) YXQGTFTSDFSXXLDKKAQXAFIEYLLAGGPSSGEPPPEGS (synthetic construct; SITE 2: note = 2-Aminoisobutyric Acid; SITE 12: note = L-ornithine; SITE 13: note = alpha-methyl-leucine; SITE 17: note = Lysine is chemically modified through conjugation of the epsilon-amino group of the Lysine side chain with (2-[2-(2-Amino-ethoxy)-ethoxy]-acetyl)-(gamma-Glu)) [Example 152]: 491
9) YXQGTFTSDFSXXLDKKAQXAFIEYLLEAGHSSGAPPPSGE (acylation; synthetic construct; SITE 2: note = 2-Aminoisobutyric Acid; SITE 12: note = L-ornithine; SITE 13: note = alpha-methyl-leucine; SITE 17: note = Lysine is chemically modified through conjugation of the epsilon-amino group of the Lysine side chain with (2-[2-(2-Amino-ethoxy)-ethoxy]-acetyl)-(gamma-Glu)) [Example 207]: 225
10) YXQGTFTSDXSXXLDXKAQXEFIEXLIEGGPSSGAPPPSGSEE (Aib, 4Pal, Orn, Me4Pal, αMeY; acylated lysine; amide; synthetic construct; SITE 2: note = 2-Aminoisobutyric Acid; SITE 10: note = 3-(4-Pyridyl)-L-alanine; SITE 12: note = L-ornithine; SITE 13: note = alpha-methyl-leucine; SITE 16: note = L-ornithine; SITE 17: note = Lysine is chemically modified through conjugation of the epsilon-amino group of the Lys) [Example 973]: 1140
11) YXQGTFTSDFSQXLDKKAQXAFIEYLIEGGESSGAPPPSGS (synthetic construct; SITE 2: note = 2-Aminoisobutyric Acid; SITE 13: note = alpha-methyl-leucine; SITE 17: note = Lysine is chemically modified through conjugation of the epsilon-amino group of the Lysine side chain with (2-[2-(2-Amino-ethoxy)-ethoxy]-acetyl)-(gamma-Glu)-CO-(CH2) 16-CO2H; SITE 20: n) [Example 795]: 221
12) YXQGTFTSDFSXXLDKKAQXAFIEYLLEGGPSSGAPPPEGT (synthetic construct; SITE 2: note = 2-Aminoisobutyric Acid; SITE 12: note = L-ornithine; SITE 13: note = alpha-methyl-leucine; SITE 17: note = Lysine is chemically modified through conjugation of the epsilon-amino group of the Lysine side chain with (2-[2-(2-Amino-ethoxy)-ethoxy]-acetyl)-(gamma-Glu)) [Example 160]: 482
13) YXQGTXTSDXXIXLDXKAQXXFIEXLIEGGPSSGEPPPSEG (synthetic construct; SITE 2: note = 2-Aminoisobutyric Acid; SITE 6: note = alpha-methyl-2-fluoro-L-phenylalanine; SITE 10: note = 3-(4-Pyridyl)-L-alanine; SITE 11: note = alpha-methyl-L-serine; SITE 13: note = alpha-methyl-leucine; SITE 16: note = L-ornithine; SITE 17: note = Lysine is chemically mo) [Example 401]: 12
14) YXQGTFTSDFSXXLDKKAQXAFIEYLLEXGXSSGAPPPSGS (acylated; synthetic construct; SITE 2: note = 2-Aminoisobutyric Acid; SITE 12: note = L-ornithine; SITE 13: note = alpha-methyl-leucine; SITE 17: note = Lysine is chemically modified through conjugation of the epsilon-amino group of the Lysine side chain with (2-[2-(2-Amino-ethoxy)-ethoxy]-acetyl)-(gamma-Glu)) [Example 242]: 242
15) YXQGTXTSDYSILLDKKAQXAFIEYLEEGGPSSGAPPPEEG (synthetic construct; SITE 2: note = 2-Aminoisobutyric Acid; SITE 6: note = alpha-methyl-2-fluoro-L-phenylalanine; SITE 17: note = Lysine is chemically modified through conjugation of the epsilon-amino group of the Lysine side chain with (2-[2-(2-Amino-ethoxy)-ethoxy]-acetyl)-(gamma-Glu)-CO-(CH2) 16-) [Example 399]: 42.8
